Biological target: Glucose transporter (Leishmania mexicana) (UniProt O61059)
Test: ST_JUDE_LEISH: Cytotoxicity at 2uM final concentration against transgenic Leishmania Mexicana promastigotes LmGT2 that are glucose transport deficient and complemented with the L. Mexicana glucose transporter 2. Activity is measured by DNA content using SYBR green in vitro
Type: functional
// values below are reported inhibition
Your answer is read as %, so omit the unit and give the number.

Note to self: inhibition of `Cc1cc(CN2CC[C@H](NC(=O)c3ccc(Cl)c(Cl)c3)C2)ccc1OC1CCN(Cc2ccccc2)CC1` with Glucose transporter (Leishmania mexicana) (UniProt O61059) was 8.04

Item `CCCc1cc(=O)[nH]c(-n2nc(C)cc2NC(=O)c2cc3ccccc3o2)n1` ; assay system Glucose transporter (Leishmania mexicana) (UniProt O61059); inhibition reported as 4.77

Entry `O=C(NCCN1CCCCC1)c1cccc(Nc2nccc(Nc3ccc(Oc4ccccc4)cc3)n2)c1` : inhibition on Glucose transporter (Leishmania mexicana) (UniProt O61059) = -0.27

Field inhibition (system: Glucose transporter (Leishmania mexicana) (UniProt O61059)) for entry `COc1cc(Cc2cnc(N)nc2N)ccc1Oc1ccc(N)cc1` = 0.97

Glucose transporter (Leishmania mexicana) (UniProt O61059) inhibition of `CN1CCCN(Cc2cccc(-c3cccc(NC(=O)c4cccc(C#N)c4)c3)c2)CC1` is 10.3

###

Reported inhibition values for a set of compounds
Biological target: Hexose transporter 1 (Plasmodium falciparum)
Assay: ST_JUDE_LEISH: Cytotoxicity at 2uM final concentration against transgenic Leishmania Mexicana promastigotes LmPfHT that are glucose transport deficient and complemented with the Plasmodium falciparum hexose transporter. Activity is measured by DNA content using SYBR green in vitro
Assay type: functional
Record the result as a number with its unit.

Reference set, count: 5
COc1ccc2nc3cc(Cl)ccc3c(Nc3ccc(Sc4ccc(Nc5c6ccc(Cl)cc6nc6ccc(OC)cc56)cc4)cc3)c2c1: 4.48%
CCOc1cc(C(=O)NCCc2ccc(Cl)c(Cl)c2)ccc1-c1nc2cc(Cl)ccc2[nH]1: 0.01%
Cc1cccc2nc(-c3cccc(-c4cccc(CNCCc5cccn5C)c4)c3)[nH]c12: 2.29%
COc1ccc2nccc([C@@H](O)CN3CCC(NCc4nc5ccccc5[nH]4)CC3)c2c1: -0.18%
CCc1ccc(CN2CCC(CNC(=O)c3cc(-c4cccc(C(F)(F)F)c4)cs3)C2)cc1 (centres undefined): -0.98%

So for `c1cncc(CCNCc2cccc(-c3csc(-c4nc5ccccc5[nH]4)c3)c2)c1` , the logged inhibition turned out to be 4.06%

`COc1cc2c(cc1S(=O)(=O)c1ccc(NC(=O)c3cccc(C(F)(F)F)c3)cc1)CCN(C)CC2` yielded inhibition of 0.62%

Lookup result for `O=C(CN(c1cccc(C(F)(F)F)c1)S(=O)(=O)c1ccc(Cl)cc1)NCCC(c1ccccc1)c1ccccc1` ; measured inhibition: -0.47%

The compound `CCCCN(C(=O)c1ccccc1Cl)c1nnc(-c2ccccc2C)s1` showed inhibition equal to 0.39%

Lookup result for `O=C(CCCc1ccccc1)Nc1cccc(N2CCC(N3CCN(c4ccccc4O)CC3)CC2)c1` ; measured inhibition: 7.32%

###

Target: Solute carrier family 2, facilitated glucose transporter member 1 (Homo sapiens)
Experiment: ST_JUDE_LEISH: Cytotoxicity at 2uM final concentration against transgenic Leishmania Mexicana promastigotes LmGLUT1 that are glucose transport deficient and complemented with the human glucose transporter GLUT1. Activity is measured by DNA content using SYBR green in vitro
Format: functional
Metric: inhibition (%)
State just the number; it will be interpreted in %.

Solved entries:
CCC1(C)N=C(N)N=C(N)N1c1ccccc1 (stereo not given): -3.49
c1ccc(CNc2nc(NCCN3CCCCC3)nc3ccccc23)cc1: 10.2
O=C(Nc1ccc2c(c1)CCC2)c1cnc(N2CCN(c3ccncc3)CC2)c(Cl)c1: 54.2
CC(C)NCc1ccc(-c2ccc(-c3nc4cc(C(F)(F)F)ccc4[nH]3)cc2)cc1: 1.09
N#Cc1cncc(-c2nc3c(N4CCC(N5CCCC5)CC4)cccc3n2CCNCc2ccccc2)c1: 0.91

For the compound `Cc1cc(O)c(-c2ccc(Oc3ccc(F)cc3)cc2)c(C)n1` , the measured inhibition on Solute carrier family 2, facilitated glucose transporter member 1 (Homo sapiens) was 0.78

Form field, inhibition with Solute carrier family 2, facilitated glucose transporter member 1 (Homo sapiens), item `CC(C)(C)C(=O)Nc1ccc(C(=O)Nc2cccc(-c3nc4ccccc4[nH]3)c2)cc1` : 1.87

Case `COc1ccccc1-c1[nH]c2ccccc2c1CN1CCC(c2c(C)cccc2C)CC1` , Solute carrier family 2, facilitated glucose transporter member 1 (Homo sapiens), inhibition recorded as 16.3

Summary line: `CC(=O)N(Cc1nc(-c2cc(Cl)c(Cl)s2)cs1)c1c(C)cccc1C` , Solute carrier family 2, facilitated glucose transporter member 1 (Homo sapiens), reported inhibition = 4.94

# value of inhibition, Solute carrier family 2, facilitated glucose transporter member 1 (Homo sapiens), item `Cc1ccc(C(=O)Nc2cc(S(=O)(=O)N3CCCC3)ccc2OCC(F)(F)F)cc1` = 3.23

Entry `Oc1cc(NC[C@@H]2CCC[C@@H]2NCc2ccc(Cl)c(Cl)c2)nc2ccccc12` ; assay system Solute carrier family 2, facilitated glucose transporter member 1 (Homo sapiens); inhibition recorded at 9.21

// inhibition (Solute carrier family 2, facilitated glucose transporter member 1 (Homo sapiens)) for `CC1(C)N=C(N)N=C(N)N1OCCCCON1C(N)=NC(N)=NC1(C)C` = 3.48

The compound `CC1CCN(CC[C@H]2CCCN2S(=O)(=O)c2cccc(NC(=O)Nc3ccc(C(F)(F)F)cc3)c2)CC1` , tested on Solute carrier family 2, facilitated glucose transporter member 1 (Homo sapiens), showed inhibition of 0.63

Given the compound `Cc1ccc(O)cc1Nc1ccnc2cc(-c3csc(CN(C)CCN(C)C)n3)ccc12` and test system Solute carrier family 2, facilitated glucose transporter member 1 (Homo sapiens), the measured inhibition is -0.07

Observed inhibition on Solute carrier family 2, facilitated glucose transporter member 1 (Homo sapiens), entry `CC(C)(C)c1ccc(NC(=O)c2ccc(CN3CCCN(Cc4ccc(F)cc4)CC3)cc2)cc1` , equals 2.24

The compound `O=C(/C=C/c1ccc(Cl)c(Cl)c1)NCCCCCN1CCC(n2c(=O)[nH]c3ccccc32)CC1` , tested on Solute carrier family 2, facilitated glucose transporter member 1 (Homo sapiens), showed inhibition of 8.14

// assay Solute carrier family 2, facilitated glucose transporter member 1 (Homo sapiens), entry CC(=O)Nc1ccc2[nH]cc(C3CCN(CC4CCC(NC(=O)/C=C/c5ccccc5Cl)CC4)CC3)c2n1 (stereo not given) , inhibition value = 6.86

Test item `COc1cc(Nc2ccnc3cc(-c4ccncc4)ccc23)cc(OC)c1OC` ; Solute carrier family 2, facilitated glucose transporter member 1 (Homo sapiens); reported inhibition was 11.4

// returns inhibition for O=C(OCc1ccccc1)N1CCc2c([nH]c3ccccc23)C1CCC(F)(F)F (stereo not given) with Solute carrier family 2, facilitated glucose transporter member 1 (Homo sapiens); value = 3.72

The recorded inhibition with Solute carrier family 2, facilitated glucose transporter member 1 (Homo sapiens) for `CCOC(=O)c1c(CSc2ccccc2)oc2cc(CN(C)C)c(O)c(Cl)c12` was 1.18

###

Each item that follows carries a reported inhibition.
Target: Glucose transporter (Leishmania mexicana)
Experiment: ST_JUDE_LEISH: Cytotoxicity at 2uM final concentration against transgenic Leishmania Mexicana promastigotes LmGT2 that are glucose transport deficient and complemented with the L. Mexicana glucose transporter 2. Activity is measured by DNA content using SYBR green in vitro
Type: functional
Numbers only here, please. The scale is %.

COc1cc(-c2nc(-c3ccncc3)c(-c3ccc4c(c3)CCC4=NO)[nH]2)ccc1OCCN1CCN(C)CC1: 5.31
C[C@@H]([C@@H](CCCCc1ccccc1)C(=O)N[C@H](C(=O)Nc1cccnc1)C(C)(C)C)N(O)C=O: 2.12

# context switch: different molecule, same inhibition
Lab book: inhibition of `O=C(Nc1ccc(N2CCNCC2)nc1)c1oc(-c2ccccc2)nc1C(F)(F)F` noted as 0.32

###

Molecular target: Solute carrier family 2, facilitated glucose transporter member 1 (Homo sapiens)
Experiment: ST_JUDE_LEISH: Cytotoxicity at 2uM final concentration against transgenic Leishmania Mexicana promastigotes LmGLUT1 that are glucose transport deficient and complemented with the human glucose transporter GLUT1. Activity is measured by DNA content using SYBR green in vitro
Assay type: functional
We begin with a simple list: items and their reported inhibition.
Give just the numeric value; % need not be written.

Cc1cc(NC2CCCC2)nc(Nc2ccc(F)cc2)n1: 8.81

Switching to the query record.
Just so you know, measured inhibition for `CCCC1(NC[C@@H](O)[C@H](Cc2ccccc2)NC(=O)c2cc(NCC)cc(N3CCCCS3(=O)=O)c2)CCC1` came out at 4.81

###

Target: Hexose transporter 1 (Plasmodium falciparum)
Test: ST_JUDE_LEISH: Cytotoxicity at 2uM final concentration against transgenic Leishmania Mexicana promastigotes LmPfHT that are glucose transport deficient and complemented with the Plasmodium falciparum hexose transporter. Activity is measured by DNA content using SYBR green in vitro
Type: functional
Reported values of inhibition for individual entries
Reply with the number, then its unit.

Past entries and their recorded results:
COc1ccc2[nH]c3ccccc3c(=O)c2c1: 0.99%
Cc1cc(C(=O)Nc2ccc3c(c2)CCN3C2CCN(Cc3csc4ccccc34)C2)no1 (centres undefined): -2.02%
CS(=O)(=O)N1CC2(CCN(CCC(NC(=O)NCc3ccc(Cl)c(Cl)c3)c3ccc(Cl)c(Cl)c3)CC2)c2ccccc21 (centres undefined): -2.55%

// recorded inhibition for `Cc1cccc(C)c1OC(=O)CSc1nnc(-c2ccccc2O)o1` : 2.43%

Input `CN(CC(=O)Nc1cc(C(F)(F)F)ccc1-n1cncn1)Cc1nc2ccccc2s1` . Output inhibition: 2.69%

Taken from ChEMBL document CHEMBL3433997.
